Tested on: MCF7
test.name: Anticancer activity against human MCF7 cells assessed as growth inhibition after 72 hrs by MTT assay
Format: functional, cell-based
condition.label: MCF7, 72 h
pIC50: −log10 of the molar value.
reported.metric: pIC50

Consider the following illustrative entries.
> print(dat)
                            smiles.notation  experimental.value
1  C[C@]12O[C@@H]1CC[C@@]1(C)O[C@@H]1[C@H]1OC(=O)[C@@H](CN3CCOCC3)[C@@H]1C[C@H]2O                4.62
2  C/C1=C\CC[C@@]2(C)O[C@@H]2[C@H]2OC(=O)[C@@H](CN3CCCC3)[C@@H]2C[C@H]1O                4.68
3  C[C@]12O[C@@H]1CC[C@@]1(C)O[C@@H]1[C@H]1OC(=O)[C@@H](CN3CCN(c4ccccc4F)CC3)[C@@H]1C[C@H]2O                4.70
4  COc1ccc(N2CCN(C[C@@H]3C(=O)O[C@H]4[C@H]3C[C@@H](O)/C(C)=C/CC[C@@]3(C)O[C@H]43)CC2)cc1                4.62

(a) C/C1=C\CC[C@@]2(C)O[C@@H]2[C@H]2OC(=O)[C@@H](CN3CCN(C)CC3)[C@@H]2C[C@H]1O
(b) C/C1=C\CC[C@@]2(C)O[C@@H]2[C@H]2OC(=O)[C@@H](CN(C)CCN(C)C)[C@@H]2C[C@H]1O
a or b : whose pIC50 is greater? In your reply, give the label of the chosen option.
b
(b: 4.85, a: 4.48)

(a) C=C1C(=O)O[C@H]2[C@H]1C[C@H](O)/C(C)=C/CC[C@@]1(C)O[C@@H]21
(b) C[C@]12O[C@@H]1CC[C@@]1(C)O[C@@H]1[C@H]1OC(=O)[C@@H](CN3CCCCC3)[C@@H]1C[C@H]2O
(c) C=C1C(=O)O[C@H]2[C@H]1C[C@@H](O)/C(C)=C/CC[C@@]1(C)O[C@@H]21
List by increasing pIC50. // list labels; follow requested order
b, a, c
(b: 4.13, a: 4.64, c: 5.22)

* * *

Tested on: SK-MEL-28
test.name: Anticancer activity against human SK-MEL-28 cells assessed as growth inhibition after 72 hrs by MTT assay
Assay type: functional, cell-based
condition.label: SK-MEL-28, 72 h
pIC50: −log10 of the molar value.
reported.metric: pIC50

Consider the following illustrative entries.
> print(dat)
                            smiles.notation  experimental.value
1  C/C1=C\CC[C@@]2(C)O[C@@H]2[C@H]2OC(=O)[C@@H](CN3CCN(C)CC3)[C@@H]2C[C@H]1O                4.24
2  C/C1=C\CC[C@@]2(C)O[C@@H]2[C@H]2OC(=O)[C@@H](CN3CCOCC3)[C@@H]2C[C@H]1O                4.66

(A) C=C1C(=O)O[C@H]2[C@H]1C[C@H](O)/C(C)=C/CC[C@@]1(C)O[C@@H]21
(B) C/C1=C\CC[C@@]2(C)O[C@@H]2[C@H]2OC(=O)[C@@H](CN3CCCCC3)[C@@H]2C[C@H]1O
Consider entries A and B . Which has the numerically lower pIC50? In your reply, give the label of the chosen option.
A
(A: 4.60, B: 4.80)

* * *

Catalogue of pIC50 readings, one per entry.
test.name: Anticancer activity against human Glioma cells assessed as growth inhibition after 72 hrs by MTT assay
Type: functional, cell-based
pIC50 is defined as minus the log10 of a concentration measured in mol/L.

Consider the following illustrative entries.
> print(dat)
                            smiles.notation  reported.metric  experimental.value
1  C/C1=C\CC[C@@]2(C)O[C@@H]2[C@H]2OC(=O)[C@@H](CN3CCN(C)CC3)[C@@H]2C[C@H]1O            pIC50                4.44
2  C/C1=C\CC[C@@]2(C)O[C@@H]2[C@H]2OC(=O)[C@@H](CN(C)CCN(C)C)[C@@H]2C[C@H]1O            pIC50                4.80

Which pIC50 value is on record for `C/C1=C\CC[C@@]2(C)O[C@@H]2[C@H]2OC(=O)[C@@H](CN3CCCCC3)[C@@H]2C[C@H]1O` ?
5.40

Which pIC50 value is on record for `C/C1=C\CC[C@@]2(C)O[C@@H]2[C@H]2OC(=O)[C@@H](CN3CCN(c4ccccc4)CC3)[C@@H]2C[C@H]1O` ?
5.30

Which pIC50 value is on record for `C[C@]12O[C@@H]1CC[C@@]1(C)O[C@@H]1[C@H]1OC(=O)[C@@H](CN3CCCCC3)[C@@H]1C[C@H]2O` ?
4.23

* * *

Tested on: T98G
test.name: Anticancer activity against human T98G cells assessed as growth inhibition after 72 hrs by MTT assay
Assay type: functional, cell-based
Catalogue of IC50 readings, one per entry.
// return numeric value only (unit: µM, not printed)

// fetch T98G IC50 for `C/C1=C\CC[C@@]2(C)O[C@@H]2[C@H]2OC(=O)[C@@H](CN3CCCCC3)[C@@H]2C[C@@H]1O`
17

// fetch T98G IC50 for `C=C1C(=O)O[C@H]2[C@H]1C[C@H](O)/C(C)=C/CC[C@@]1(C)O[C@@H]21`
25

// fetch T98G IC50 for `C[C@]12O[C@@H]1CC[C@@]1(C)O[C@@H]1[C@H]1OC(=O)[C@@H](CN3CCN(c4ccc(Cl)cc4)CC3)[C@@H]1C[C@H]2O`
16

// fetch T98G IC50 for `C/C1=C\CC[C@@]2(C)O[C@@H]2[C@H]2OC(=O)[C@@H](CN3CCCC3)[C@@H]2C[C@@H]1O`
15

// fetch T98G IC50 for `C=C1C(=O)O[C@H]2[C@H]1C[C@@H](O)/C(C)=C/CC[C@@]1(C)O[C@@H]21`
11

// fetch T98G IC50 for `C/C1=C\CC[C@@]2(C)O[C@@H]2[C@H]2OC(=O)[C@@H](CN3CCN(C)CC3)[C@@H]2C[C@@H]1O`
23

* * *

System: MCF7
test.name: Anticancer activity against human MCF7 cells assessed as growth inhibition after 72 hrs by MTT assay
Format: functional, cell-based
condition.label: MCF7, 72 h
pIC50: −log10 of the molar value.
reported.metric: pIC50

Consider the following illustrative entries.
> print(dat)
                            smiles.notation  experimental.value
1  C[C@]12O[C@@H]1CC[C@@]1(C)O[C@@H]1[C@H]1OC(=O)[C@@H](CN3CCN(c4ccc(Cl)cc4)CC3)[C@@H]1C[C@H]2O                4.54
2  C/C1=C\CC[C@@]2(C)O[C@@H]2[C@H]2OC(=O)[C@@H](CN3CCN(C)CC3)[C@@H]2C[C@@H]1O                4.66
3  C/C1=C\CC[C@@]2(C)O[C@@H]2[C@H]2OC(=O)[C@@H](CN3CCN(c4ccccc4F)CC3)[C@@H]2C[C@H]1O                4.62
4  C/C1=C\CC[C@@]2(C)O[C@@H]2[C@H]2OC(=O)[C@@H](CN3CCCCC3)[C@@H]2C[C@@H]1O                5.10
5  C/C1=C\CC[C@@]2(C)O[C@@H]2[C@H]2OC(=O)[C@@H](CN3CCOCC3)[C@@H]2C[C@H]1O                4.62
6  C/C1=C\CC[C@@]2(C)O[C@@H]2[C@H]2OC(=O)[C@@H](CN3CCCCC3)[C@@H]2C[C@H]1O                4.80
7  C/C1=C\CC[C@@]2(C)O[C@@H]2[C@H]2OC(=O)[C@@H](CN3CCCC3)[C@@H]2C[C@@H]1O                4.74

(P) C/C1=C\CC[C@@]2(C)O[C@@H]2[C@H]2OC(=O)[C@@H](CN3CCN(c4ccccc4)CC3)[C@@H]2C[C@H]1O
(Q) C[C@]12O[C@@H]1CC[C@@]1(C)O[C@@H]1[C@H]1OC(=O)[C@@H](CN3CCN(c4ccccc4)CC3)[C@@H]1C[C@H]2O
Consider entries P and Q . Which has the numerically lower pIC50? In your reply, give the label of the chosen option.
Q
(Q: 4.23, P: 4.72)
